System: Candida albicans A. 10231
Assay: In vitro antifungal activity, microbroth dilution MIC
Type: cell-based
Details: C. albicans A. 10231, RPMI-1640, 35° C., 4 to 48 hours
parameter: Minimal inhibitory concentration (MIC) (µg/mL)

- FC(OCC1COC(Cn2ccnc2)(c2ccc(F)cc2F)O1)=C(c1ccc(F)cc1)C(F)(F)F (mixture of isomers): 12.5
- CCOc1ccc(C=C(F)OCC2COC(Cn3ccnc3)(c3ccc(Cl)cc3Cl)O2)cc1 (centres unmarked): 25.0
- Cc1cccc(C=C(F)OCC2COC(Cn3ccnc3)(c3ccc(F)cc3F)O2)c1 (mixture of isomers): 25.0
- Cc1cccc(C(=C(F)OCC2COC(Cn3ccnc3)(c3ccc(Cl)cc3Cl)O2)C(F)(F)F)c1 (centres unmarked): 6.25
- Cc1cc(C)c(C=C(F)OCC2COC(Cn3ccnc3)(c3ccc(Cl)cc3Cl)O2)cc1C (centres unmarked): 12.5
